Entries annotated with measured enrichment
B1: NLV3 TCR beta chain (CDR3β only) (parent)
chain: ASSPTGGSPSPLH

variants of: B1; assay: T-Switch: Jurkat TCRβ−/− cells expressing a CDR3 saturation-mutagenesis library, stained with two peptide-HLA-A*02:01 tetramers (original and novel peptide) plus anti-CD3, FACS-sorted into four gates, gDNA sequenced; settings: with both tetramers (double-negative gate, binds neither): HLA-A*02:01 with … and with …, tetramers 1 µg/mL, 30 min on ice, SP, DP and SW gates expanded about 10 days between rounds ('two to three rounds of selection' in the Methods), gate DN: OPPOSITE: higher = more of the variant in the gate that binds neither peptide = LESS binding (or no expression; inferred). Fold enrichment of the CDR3 variant in one FACS gate of a two-tetram, unresolved parent, parent is a CDR3 fragment, scale: fold enrichment, numbering: sequential-on-construct, sequence starts at 1
Form field (numeric): enter value without unit.

Here's what some known entries look like.
MUTATION_NAME | QUANTITY_MEASURED | REPORTED_RESULT
[…] (CDR3 as printed); L12F derived by comparing it with the table's wild-type CDR3 ASSPTGGSPSPLH | enrichment | 1.49
[…] (CDR3 as printed); P9A derived by comparing it with the table's wild-type CDR3 ASSPTGGSPSPLH | enrichment | 0.394
[…] (CDR3 as printed); P4G derived by comparing it with the table's wild-type CDR3 ASSPTGGSPSPLH | enrichment | 0.753
[…] (CDR3 as printed); S10R derived by comparing it with the table's wild-type CDR3 ASSPTGGSPSPLH | enrichment | 1.17
[…] (CDR3 as printed); L12V derived by comparing it with the table's wild-type CDR3 ASSPTGGSPSPLH | enrichment | 0.702

Prompt: Endpoint output: enrichment of […] (CDR3 as printed); P4L derived by comparing it with the table's wild-type CDR3 ASSPTGGSPSPLH . Value?
Response: 0.459

Prompt: Proceed to […] (CDR3 as printed); G6W derived by comparing it with the table's wild-type CDR3 ASSPTGGSPSPLH
Response: 1.44

Where do the numbers come from? From paper PMC13397619.
